Target: T1, human Klotho β (human, UniProt Q86Z14 1-1044)
T1 sequence (looked up): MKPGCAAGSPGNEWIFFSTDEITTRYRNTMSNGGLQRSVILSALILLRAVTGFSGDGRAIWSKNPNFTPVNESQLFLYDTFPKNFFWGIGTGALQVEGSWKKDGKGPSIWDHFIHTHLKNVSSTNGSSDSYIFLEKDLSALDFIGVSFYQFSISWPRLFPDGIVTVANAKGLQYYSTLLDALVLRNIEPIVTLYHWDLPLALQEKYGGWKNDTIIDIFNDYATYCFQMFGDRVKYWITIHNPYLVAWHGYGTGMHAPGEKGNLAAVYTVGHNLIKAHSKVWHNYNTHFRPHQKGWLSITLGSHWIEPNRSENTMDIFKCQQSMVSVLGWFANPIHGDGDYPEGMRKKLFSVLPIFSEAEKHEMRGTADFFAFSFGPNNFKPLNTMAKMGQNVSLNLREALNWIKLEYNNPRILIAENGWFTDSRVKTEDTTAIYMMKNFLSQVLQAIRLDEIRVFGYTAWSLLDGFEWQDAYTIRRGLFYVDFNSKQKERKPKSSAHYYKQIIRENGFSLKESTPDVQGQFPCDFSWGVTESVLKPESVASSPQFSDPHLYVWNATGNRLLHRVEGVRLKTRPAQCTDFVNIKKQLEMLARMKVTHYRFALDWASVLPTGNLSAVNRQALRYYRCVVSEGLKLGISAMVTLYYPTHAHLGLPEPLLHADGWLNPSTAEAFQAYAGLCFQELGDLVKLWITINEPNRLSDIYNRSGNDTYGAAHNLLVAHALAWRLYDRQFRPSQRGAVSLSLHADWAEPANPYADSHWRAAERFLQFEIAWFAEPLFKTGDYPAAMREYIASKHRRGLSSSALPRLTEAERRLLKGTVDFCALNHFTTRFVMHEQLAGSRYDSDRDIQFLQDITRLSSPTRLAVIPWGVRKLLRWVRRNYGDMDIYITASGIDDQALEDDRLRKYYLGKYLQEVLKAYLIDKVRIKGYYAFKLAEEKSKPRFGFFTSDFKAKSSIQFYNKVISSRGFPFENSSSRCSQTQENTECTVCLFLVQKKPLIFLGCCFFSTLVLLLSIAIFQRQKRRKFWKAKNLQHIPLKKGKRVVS
Experiment: cell-based or functional assay
Non-standard residues stand in square brackets, D forms with d. No end group written: not given here.
Would you kindly list IC50 of antagonism of FGF21 (assay of Example 1) for each of these binders?
Just the number in nM, nothing appended.

Field IC50 of antagonism of FGF21 (assay of Example 1) (entry LETDSMDPF[dS]LVTGLEAVRSPSFES-NH2 [FGF19 S10] ) reads 194

Field IC50 of antagonism of FGF21 (assay of Example 1) (entry LETDSMDPFGLVTGLEAVRSPSFEA [FGF19 A26] ) reads 17.9

Field IC50 of antagonism of FGF21 (assay of Example 1) (entry PPDVGSSDPL[dS]MVGPSQGRSPSYAS-NH2 [FGF21 D11] ) reads 19.9

Field IC50 of antagonism of FGF21 (assay of Example 1) (entry LETDSMDPF[dS]LVTGLEAVRSPSFEA-NH2 [FGF19 S10A26] ) reads 10.9
